# System under test: human orexin-2 receptor (Homo sapiens (Human), UniProt O43614)
# Sequence (O43614 whole entry): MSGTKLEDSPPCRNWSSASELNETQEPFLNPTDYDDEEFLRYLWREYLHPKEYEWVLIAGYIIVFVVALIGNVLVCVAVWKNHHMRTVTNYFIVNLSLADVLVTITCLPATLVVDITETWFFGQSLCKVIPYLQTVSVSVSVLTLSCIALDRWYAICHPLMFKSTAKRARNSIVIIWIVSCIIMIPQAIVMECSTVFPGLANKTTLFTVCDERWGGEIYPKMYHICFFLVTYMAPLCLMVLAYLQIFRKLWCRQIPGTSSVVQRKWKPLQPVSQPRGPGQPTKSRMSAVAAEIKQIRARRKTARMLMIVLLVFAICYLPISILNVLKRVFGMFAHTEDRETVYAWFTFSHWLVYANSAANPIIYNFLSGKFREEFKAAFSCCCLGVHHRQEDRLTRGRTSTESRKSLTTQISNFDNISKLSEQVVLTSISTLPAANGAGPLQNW
# Protocol details: Human orexin 2 receptor radioligand binding ([3H]-EMPA competition)
# Reported conditions: HEK293 cells stably expressing human orexin-2 receptor; [3H]-EMPA 5 nM final; read-out: OR-2 Ki
Assay readout: log10(Ki) (log10 of the value in nM)
Hi team, quick reminder: these entries are log10 of Ki (nM).

O=C(c1ccccc1-n1nccn1)N1CC[C@H]2CN(c3nc4cc(Cl)ccc4o3)[C@H]2C1 [Example 119] = 1.23

Task: Can you share its log10(Ki)? I mean this compound: Cc1cc(C)nc(N2C[C@@H]3CCN(C(=O)c4ccc(C(F)(F)F)nc4-n4ccnn4)C[C@@H]32)n1 [Example 159]
Result: 2.73

Task: Please give the result for Cc1cc(N2C[C@@H]3CCN(C(=O)c4cc(F)ccc4-n4nccn4)C[C@@H]32)nc(N(C)C)n1 [Example 40] too.
Result: 1.96

Task: Quick one: Cc1cc(C)nc(N2C[C@@H]3CCN(C(=O)c4ncoc4-c4cccc(Cl)c4)C[C@@H]32)n1 [Example 178]
Result: 2.10
